src = patent US20200332281

system_under_test: thrombin (UniProt P00734;P00734 P00734:328-363,P00734:364-622)
assay_notes: SPR; HBS-EP, 150 mM NaCl, pH 7.0
observation_type: pKd
// pKd: -log10(molar conc.)

Param item = T_apt.4 (= T_beads_re_apt.8) (ssDNA) DNA: AGCAGCACAGAGGTCAGATGTTGGTGGGGTGGCTTTGGGTATTTACTTGGCCTATGCGTGCTACCGTGAA ; retrieve measured pKd.
7.09

So what does the record say about pKd for T_apt.6 (ssDNA) DNA: AGCAGCACAGAGGTCAGATGGTTGGGTAGGGTTGGATAGGGGCAAGTAGACCTATGCGTGCTACCGTGAA ?
7.26

Need pKd, item T_apt.3 (= T_beads_apt.1, T_beads_re_apt.7) (ssDNA) DNA: AGCAGCACAGAGGTCAGATGGATGGTGTAGGTTGGGAGAGGCTCAGTGCCCCTATGCGTGCTACCGTGAA
7.12
